The reported measurements were obtained from patent US20150038673A1.

Target Or System: anti-β1-ECII antibodies of GST/β1-ECII-immunized antibody-positive rats (sera or isolated IgG fractions) (rat)
Procedure Summary: ELISA competition, IgG of n=78 rats preincubated with peptide, linear 25AA Cys/Cys peptide as antigen
Bridge positions count the residues as written; N and C are the ends. Square brackets hold non-standard residues; d marks the D form.
Quantity Measured: blocking capacity (% of blocked versus non-blocked ELISA-reactivity) (%)

// known answers, use as guide
*Q* Bench note: what blocking capacity (% of blocked versus non-blocked ELISA-reactivity) did ARAESDEARRCYNDPKCCDFVTNRQ [linear non-mutated 3 Cys-containing ECII-25AA Cys/Cys (Gln25) peptide] show?
*A* 55

*Q* Also cyclo(ADEARRCYNDPKCCDFVQ) (also: three Cys (7, 13, 14), disulfide pairing not defined) [3 Cys-containing β1-ECII-18AA Cys/Cys cyclopeptide] , if possible.
*A* 60

I. cyclo(ADEARRCYNDPKSCDFV[dE]) (disulfide 7-14 (inferred)) [β1-ECII-18AA Ser/Cys cyclopeptide mutant with D-Glu ring closure (formula XII)]
II. cyclo(ARAESDEARRCYNDPKSCDFVTNRQ) (disulfide 11-18 (inferred)) [β1-ECII-25AA Ser/Cys mutant (Gln-)cyclopeptide (formula XI)]
*Q* Returns: the label, I or II , whose recorded blocking capacity (% of blocked versus non-blocked ELISA-reactivity) is the lower number. Lab note: record the label of whichever item you select.
*A* I
